Each entry below carries its recorded LogP.
protocol_details: physchem
Type: physicochemical
Marks after values point to notes of the source that are not given here.

// worked examples, LogP included
>>> df
                                   compound  readout_kind    result
0  O=C(NCC(F)c1ccc(Cl)cc1Cl)c1cc(C2CC2)ncc1Oc1cccc(C(F)(F)F)c1 (stereo not shown) [Compound I-024]          LogP  4.96^[a]
1  COc1cccc(Oc2cnc(C)cc2C(=O)NCC(F)(F)c2ccc(C)cc2C)c1 [Compound I-182]          LogP  3.71^[a]
2  Cc1cccc(Oc2cnc(C)cc2C(=O)NCCc2ccc(C)cc2C)c1 [Compound I-255]          LogP  3.86^[a]

stdin: Report measured LogP; entry is O=C(O)c1cc(Cl)ncc1Oc1cccc(C(F)(F)F)c1 [Compound 1-001]
stdout: 2.84^[a]

stdin: Give LogP for N#CN(CCc1ccc(Cl)cc1)C(=O)c1cc(Cl)ncc1Oc1cccc(C(F)(F)F)c1 [Compound I-207]
stdout: 4.89^[a]

stdin: Assign LogP to the following record: COc1c(Cl)ncc(Br)c1C(=O)NCC(F)(F)c1ccc(C)cc1C [Compound 3-007]
stdout: 3.75^[a]

stdin: State, in one line, measured LogP of Cc1ccc(CCNC(=O)c2cc(C)ncc2Oc2cccc(C3CC3)c2F)c(C)c1 [Compound I-262]
stdout: 4.32^[a]

stdin: Retrieve LogP measured for Cc1ccc(CCNC(=O)c2cc(Cl)ncc2Oc2cccc(C=O)c2F)c(C)c1 [Compound I-127] and print it.
stdout: 3.85^[a]

stdin: Write down LogP measured for item N#Cc1nc(Cl)cc(C(=O)NCC(F)(F)c2ccc(Br)cc2Cl)c1Oc1cccc(C(F)(F)F)c1 [Compound I-215]
stdout: 4.81^[a]

stdin: Annotate the compound Cc1ccc(C(F)(F)CNC(=O)c2c(Oc3cccc(C(F)(F)F)c3)cnc(Oc3cccc(C(F)(F)F)c3)c2-n2cccn2)c(C)c1 [Compound I-169] with its measured LogP.
stdout: 5.53^[a]

stdin: Retrieve LogP measured for COCCc1cc(C(=O)NCCc2ccc(C)cc2C)c(Oc2cccc(C(F)(F)F)c2)cn1 [Compound I-118] and print it.
stdout: 4.16^[a]

stdin: Look up LogP of CC(NC(=O)c1cc(Cl)ncc1Oc1cccc(C(F)(F)F)c1)c1cn(C)c2cc(Cl)ccc12 (stereo not shown) [Compound I-021] and report it.
stdout: 4.68^[a]

stdin: Give LogP for the following compound: COCc1cccc(Oc2cnc(Cl)cc2C(=O)NCCc2ccc(C)cc2C)c1 [Compound I-157]
stdout: 4.33^[a]

stdin: Name the recorded LogP of the item Cc1ccc(C(F)(F)CNC(=O)c2cc(Cl)ncc2Oc2cccc(C(F)F)c2)c(C)c1 [Compound I-038] in your answer.
stdout: 4.35^[a]
